method-summary: in vitro
applied-conditions: male, Sprague-Dawley, rat
Below is a list of entries, each paired with its recorded viability at 24 h, 40 uM value.

CC(=O)O[C@]1(C(C)=O)CC[C@H]2[C@@H]3C=C(Cl)C4=CC(=O)[C@@H]5C[C@@H]5[C@]4(C)[C@H]3CC[C@@]21C [Cyproterone acetate]: ~100%

As a next step, examine the molecule that follows.
GET /value?item= "CC/C(=C(\c1ccccc1)c1ccc(OCCN(C)C)cc1)c1ccccc1" &field=viability at 24 h, 40 uM returns ~45%

----------
method-summary: in vitro
applied-conditions: male, Sprague-Dawley, rat
assay-metric: viability at 24 h, 55 uM

viability at 24 h, 55 uM reading for O=C(O)Cc1ccccc1Nc1c(Cl)cccc1Cl [Diclofenac] : ~100%
